tested-on: ALK2 (Homo sapiens)
Sequence (Q04771 21-509): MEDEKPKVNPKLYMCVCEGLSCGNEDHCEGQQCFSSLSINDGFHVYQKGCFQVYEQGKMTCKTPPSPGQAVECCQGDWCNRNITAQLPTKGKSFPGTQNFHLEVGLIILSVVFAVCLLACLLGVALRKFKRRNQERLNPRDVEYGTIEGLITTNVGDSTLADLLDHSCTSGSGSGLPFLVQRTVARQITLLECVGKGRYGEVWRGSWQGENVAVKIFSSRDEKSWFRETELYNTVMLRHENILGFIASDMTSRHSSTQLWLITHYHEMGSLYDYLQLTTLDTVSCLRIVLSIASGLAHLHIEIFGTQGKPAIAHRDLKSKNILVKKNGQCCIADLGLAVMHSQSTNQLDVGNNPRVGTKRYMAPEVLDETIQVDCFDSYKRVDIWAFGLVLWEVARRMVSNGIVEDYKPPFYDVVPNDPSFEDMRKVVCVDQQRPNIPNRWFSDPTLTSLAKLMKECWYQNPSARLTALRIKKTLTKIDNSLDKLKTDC
measurement-protocol: TR-FRET enzymatic ALK kinase assay, ALK2
For each record, write down the corresponding IC50.
Please give a number only; it is taken to be in nM.

Fill in: IC50 of N=C(N)c1ccc(-c2cnn3cc(-c4ccc(N5CCNCC5)cc4)cnc23)cc1 [Compound 14] is ___
916

Also CC(O)c1cccc(-c2cnn3cc(-c4ccc(CN5CCCC5)cc4)cnc23)c1 (stereo not shown) [Compound 165] ?
3

Also CC[S+](=O)([O-])c1cccc(-c2cnn3cc(-c4ccc(N5[C@H](C)CNC[C@@H]5C)cc4)cnc23)c1 [Compound 104] ?
14

Also Cc1ccc(-c2cnn3cc(-c4ccc(N5[C@H](C)CNC[C@@H]5C)cc4)cnc23)cc1S(N)(=O)=O [Compound 55] ?
190

###

For each record, write down the corresponding log10 IC50.
tested-on: ALK3 (Homo sapiens, UniProt P36894)
Sequence (P36894 24-532): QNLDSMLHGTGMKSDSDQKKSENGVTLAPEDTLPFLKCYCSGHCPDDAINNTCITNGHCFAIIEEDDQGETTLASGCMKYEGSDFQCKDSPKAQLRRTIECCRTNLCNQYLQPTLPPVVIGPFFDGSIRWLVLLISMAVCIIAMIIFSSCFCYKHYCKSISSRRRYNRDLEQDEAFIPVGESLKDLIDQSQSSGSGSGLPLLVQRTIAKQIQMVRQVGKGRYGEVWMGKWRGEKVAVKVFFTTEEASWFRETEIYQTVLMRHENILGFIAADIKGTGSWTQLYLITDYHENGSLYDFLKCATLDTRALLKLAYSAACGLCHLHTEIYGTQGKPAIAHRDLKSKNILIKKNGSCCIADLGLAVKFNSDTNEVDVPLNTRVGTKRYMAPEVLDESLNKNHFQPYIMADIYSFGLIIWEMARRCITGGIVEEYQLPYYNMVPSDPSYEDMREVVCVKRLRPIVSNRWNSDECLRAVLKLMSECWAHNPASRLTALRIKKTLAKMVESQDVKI
measurement-protocol: TR-FRET enzymatic ALK kinase assay, ALK3
Parameter value (number): base-10 log of IC50 in nM.

Fill in: log10 IC50 of `CCNS(=O)(=O)c1cccc(-c2cnn3cc(-c4ccc(N5[C@H](C)CNC[C@@H]5C)cc4)cnc23)c1` is ___
3.32

Also `COc1ccc2ccccc2c1-c1cnn2cc(-c3ccc(N4[C@H](C)CNC[C@@H]4C)cc3)cnc12` ?
3.69

Also `CS(=O)(=O)c1cccc(-c2cnn3cc(-c4ccc(OC5(CN6CCCC6)CC5)cc4)cnc23)c1` ?
3.18

Also `C[C@@H](O)c1cccc(-c2cnn3cc(-c4ccc(OC5(CN6CCCCC6)CC5)cc4)cnc23)c1` ?
3.11

Also `O=[S+]([O-])(c1cccc(-c2cnn3cc(-c4ccc(C5CCNCC5)cc4)cnc23)c1)C1CC1` ?
3.59

Also `CS(=O)(=O)c1cccc(-c2cnn3cc(-c4ccc(CN5CCCC5)cc4)cnc23)c1` ?
2.59

Also `NC(=O)c1ccc(-c2cnn3cc(-c4ccc(N5CCNCC5)cc4)cnc23)c2ccccc12` ?
2.17

Also `NC(=O)c1cccc2c(-c3cnn4cc(-c5ccc(N6C[C@@H]7C[C@H]6CN7)cc5)cnc34)cccc12` ?
1.77

Also CC(O)c1cccc(-c2cnn3cc(-c4ccc(OC5(CN6CCOCC6)CC5)cc4)cnc23)c1 (stereo not drawn) ?
2.95

###

tested-on: ALK6 (Homo sapiens, UniProt O00238)
Sequence (O00238 14-502): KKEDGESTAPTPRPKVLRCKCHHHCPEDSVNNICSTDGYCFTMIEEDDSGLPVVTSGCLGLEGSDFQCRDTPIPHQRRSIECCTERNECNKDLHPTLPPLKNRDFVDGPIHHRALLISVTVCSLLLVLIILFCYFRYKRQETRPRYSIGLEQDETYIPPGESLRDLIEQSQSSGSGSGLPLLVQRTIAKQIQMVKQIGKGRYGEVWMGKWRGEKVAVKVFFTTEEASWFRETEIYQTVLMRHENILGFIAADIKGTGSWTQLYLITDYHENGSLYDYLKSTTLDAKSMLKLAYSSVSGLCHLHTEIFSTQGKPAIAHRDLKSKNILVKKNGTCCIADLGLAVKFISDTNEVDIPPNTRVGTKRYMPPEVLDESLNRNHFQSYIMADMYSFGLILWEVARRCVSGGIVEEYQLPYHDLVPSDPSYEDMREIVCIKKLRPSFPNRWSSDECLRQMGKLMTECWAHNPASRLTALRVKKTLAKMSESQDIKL
measurement-protocol: TR-FRET enzymatic ALK kinase assay, ALK6
For each record, write down the corresponding log10 of IC50.
Parameter value (number): base-10 log of IC50 in µM.

Fill in: log10 of IC50 of `CNS(=O)(=O)c1cccc2c(-c3cnn4cc(-c5ccc(N6[C@H](C)CNC[C@@H]6C)cc5)cnc34)cccc12` is ___
0.81

Also `Fc1ccc(-c2cnn3cc(-c4ccc(CCN5CCCCC5)cc4)cnc23)cc1-c1nnn[nH]1` ?
-0.62

Also `C[C@@H]1CNC[C@H](C)N1c1ccc(-c2cnc3c(-c4cccc(C[S+](C)(=O)[O-])c4)cnn3c2)cc1` ?
0.94

Also `N/C(=N/O)c1ccc(-c2cnn3cc(-c4ccc(N5CCNCC5)cc4)cnc23)c2ccccc12` ?
1.11

Also `C[C@@H]1CNC[C@H](C)N1c1ccc(-c2cnc3c(-c4cc(C(F)(F)F)cc(S(C)(=O)=O)c4)cnn3c2)cc1` ?
0.08

Also `NC(=O)c1cccc2c(-c3cnn4cc(-c5ccc(N6C[C@@H]7C[C@H]6CN7)cc5)cnc34)cccc12` ?
-0.59
